System: Klebsiella pneumoniae Strain ID 301898
Test: Antimicrobial susceptibility testing, broth microdilution (CLSI)
Format: cell-based
Conditions: Strain ID 301898 KLEPNEP, Mueller-Hinton broth, read-out: minimum inhibition concentration (MIC)
ENDPOINT LABEL: MIC

COMPOUND	EXPERIMENTAL TARGET	ENDPOINT LABEL	RECORDED RESULT
CO/N=C(\C(=O)N[C@@H]1C(=O)N2C(C(=O)O)=C(COC(C)=O)CS[C@H]12)c1csc(N)n1 [CTX, Cefotaxime]	Klebsiella pneumoniae Strain ID 301898	MIC	> 64 µg/mL
CC(C)(O/N=C(\C(=O)N[C@@H]1C(=O)N2C(C(=O)[O-])=C(C[n+]3ccccc3)CS[C@H]12)c1csc(N)n1)C(=O)O [CAZ, Ceftazidime]	Klebsiella pneumoniae Strain ID 301898	MIC	> 128 µg/mL
C[C@@H](O)[C@H]1C(=O)N2C(C(=O)O)=C(SCCN=CN)C[C@H]12 [IPM, Imipenem]	Klebsiella pneumoniae Strain ID 301898	MIC	4 µg/mL
CC1(C)S[C@@H]2[C@H](NC(=O)[C@H](N)c3ccccc3)C(=O)N2[C@H]1C(=O)O [Amp, Ampicillin]	Klebsiella pneumoniae Strain ID 301898	MIC	> 32 µg/mL

# credit: patent US9085806B2
